procedureText: Plasma protein binding by ultrafiltration, human plasma
Format: in vitro ADME
statedConditions: human plasma, read-out: PPB level, humans (converted)
measuredProperty: fraction unbound at 15 min, 9.1 MBq/mL
Enter the number alone.

What does the record list as fraction unbound at 15 min, 9.1 MBq/mL for CCCc1ccc(O)c(-c2ccc(O[11CH3])cc2)c1 [[^11C]MPbP, reference compound] ?
0.02

---

Some compounds, each annotated with its measured fraction unbound at 15 min, 9.1 MBq/mL.
procedureText: Plasma protein binding by ultrafiltration, rat plasma
Format: in vitro ADME
statedConditions: unbound (free) fraction, 37 °C, n = 3, read-out: fu in Rat Plasma
Method: The ultrafiltration method was used to estimate the protein-free fraction of [^18F]F-IV and [^11C]MPbP in human and rat plasma. Equal volumes (500 μL) of plasma or PBS (control) were mixed with the formulated solution of radioligand (5 MBq,50μL) and incubated at 37 °C for 15 min. […] Equal aliquots (20 μL) of ultrafiltrate (Cfree) and plasma (Ctotal) were measured with γ-counter. […] The unbound (free) fraction of the radioligand was calculated as fu(%) = Cfree/Ctotal × 100%.
Respond numerically, and do not add a unit to the figure.

[[record]]
compound = "CCCc1ccc(O)c(-c2ccc(OCC[18F])cc2)c1 [[^18F]F-IV]"
measuredproperty = "fraction unbound at 15 min, 9.1 MBq/mL"
recordednumber = 0.0201


Now, please, on to the next compound.
Requested read-out: fraction unbound at 15 min, 9.1 MBq/mL. Entry: CCCc1ccc(O)c(-c2ccc(O[11CH3])cc2)c1 [[^11C]MPbP, reference compound]
0.0802
